Target: acetylcholine muscarinic M1 receptor (CHOnfat/hM1 cells) (Homo sapiens, UniProt P11229)
Sequence (P11229 whole entry): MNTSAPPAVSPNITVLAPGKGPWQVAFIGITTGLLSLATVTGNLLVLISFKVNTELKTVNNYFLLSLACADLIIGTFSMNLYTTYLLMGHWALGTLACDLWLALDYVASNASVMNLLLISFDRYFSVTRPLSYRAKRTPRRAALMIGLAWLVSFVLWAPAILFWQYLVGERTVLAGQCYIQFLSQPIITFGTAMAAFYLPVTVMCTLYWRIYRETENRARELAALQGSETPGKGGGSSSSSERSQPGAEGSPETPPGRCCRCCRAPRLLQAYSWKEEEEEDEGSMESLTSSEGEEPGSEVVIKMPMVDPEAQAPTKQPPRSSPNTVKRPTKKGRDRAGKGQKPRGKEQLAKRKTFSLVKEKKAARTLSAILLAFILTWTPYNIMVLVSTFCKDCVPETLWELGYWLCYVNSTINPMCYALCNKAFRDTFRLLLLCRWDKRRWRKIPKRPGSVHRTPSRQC
Assay: muscarinic FLIPR intracellular calcium assay for M1 positive allosteric modulator activity (acetylcholine EC20)
Details: 4 min preincubation, then EC20 acetylcholine (3 nM final), read-out: IP Value (inflection point)
Form field: EC50 (one value per entry).

Answered cases to consult:
compound	EC50
O=c1c2cn(Cc3ccc(-n4cccn4)cc3)c3cnccc3c-2nn1-c1ccccc1F [Example 4]	7670 nM
O=c1c2cn(Cc3ccc(-n4cccn4)cc3)c3c(c-2nn1-c1ccccc1F)C(O)CCC3 (racemic) [Example 11]	1300 nM
O=c1c2cn(Cc3ccc(-n4cccn4)cc3)c3c(c-2nn1-c1ccccc1F)CCCC3 [Example 9]	360 nM

Could you now consider this next compound?
**Query** Tell me EC50 reported for Cc1ccccc1-n1nc2c3nccnc3n(Cc3ccc(-n4cccn4)cc3)cc-2c1=O [Example 6]
**Result** 759 nM
